The measurements presented in this section are drawn from patent US11214803B2.

Test system: Yap1 mRNA
RUN_DESCRIPTION: Dose-dependent inhibition of human Yap1 in SNU-449 cells (Example 9, RTS36584)
Format: cell-based
STATED_CONDITIONS: 31.3 nM, free uptake, approximately 48 hours
Protocol: Modified oligonucleotides described in the studies above were tested at various doses in SNU-449 cells. […] After approximately 48 hours, Yap1 mRNA levels were measured as previously described using the Human Yap1 primer-probe set RTS36584. Yap1 mRNA levels were normalized to total RNA content, as measured by RIBOGREEN®. […] IC50s were calculated using a linear regression on a log/linear plot of the data in excel.
Strand notation (5' to 3'): a small letter for the sugar, then the base; units joined by * are phosphorothioate-linked, units joined directly phosphodiester-linked; [ ] holds rarer units or linkages, { } end groups; capitals alone tell only the bases. e = 2'-O-(2-methoxyethyl) (MOE); k = constrained ethyl (cEt); [5mC] = 5-methylcytosine; d = 2'-deoxy (DNA); m = 2'-O-methyl
Overview of reported % UTC (Yap1 mRNA) across a group of substances:

// worked examples, % UTC (Yap1 mRNA) included
SUBSTANCE: 1198615 (kT*kT*kA*dA*dA*dG*dT*dG*dT*dA*dT*dG*kT*k[5mC]*kA*eG) [compound 1198615]
TESTED_ON: Yap1 mRNA
% UTC (Yap1 mRNA): 52 % UTC
//
SUBSTANCE: 958499 (ATTAGAGTATGTGGCA; 3-10-3 cEt gapmer, further chemistry not given here) [compound 958499]
TESTED_ON: Yap1 mRNA
% UTC (Yap1 mRNA): 93 % UTC
//
SUBSTANCE: 1198213 (kA*kT*dA*dT*dT*dA*dG*dA*dG*dT*dA*eT*eG*eT*kG*kG) [compound 1198213]
TESTED_ON: Yap1 mRNA
% UTC (Yap1 mRNA): 91 % UTC

Note to self: % UTC (Yap1 mRNA) recorded for 1198356 (kT*kA*kA*dA*dG*dT*dG*dT*dA*dT*dG*dT*k[5mC]*eA*kG*eA; antisense) [compound 1198356] was 85 % UTC

Note to self: % UTC (Yap1 mRNA) recorded for 1200806 (kT*kG*kA*dG*dG*mU*dA*dT*dA*dA*d[5mC]*dT*dG*kG*kG*k[5mC]; antisense) [compound 1200806] was 91 % UTC

Note to self: % UTC (Yap1 mRNA) recorded for 1198831 (CACTTTTACATTAGGA; chemically modified gapmer, further chemistry not given here) [compound 1198831] was 74 % UTC

Note to self: % UTC (Yap1 mRNA) recorded for 1198510 (k[5mC]*kT*d[5mC]*dT*dT*dA*dT*dA*dT*dG*dG*eT*kT*eT*kT*eG; antisense) [compound 1198510] was 71 % UTC

Note to self: % UTC (Yap1 mRNA) recorded for 1198212 (kT*kA*dT*dT*dA*dG*dA*dG*dT*dA*dT*eG*eT*eG*kG*k[5mC]) [compound 1198212] was 74 % UTC

Note to self: % UTC (Yap1 mRNA) recorded for 1095593 (kT*kG*dA*dG*dG*dT*dA*dT*dA*dA*d[5mC]*eT*eG*eG*kG*k[5mC]; antisense) [compound 1095593] was 73 % UTC

Note to self: % UTC (Yap1 mRNA) recorded for 1076481 (k[5mC]*kT*kA*dA*dG*dT*dA*dA*dG*dG*dT*dT*dT*k[5mC]*k[5mC]*k[5mC]) [compound 1076481] was 86 % UTC

Note to self: % UTC (Yap1 mRNA) recorded for 1198961 (kA*kA*dA*dG*dT*dG*dT*dA*dT*dG*dT*k[5mC]*dA*kG*dA*kA; antisense) [compound 1198961] was 77 % UTC

Note to self: % UTC (Yap1 mRNA) recorded for 1198288 (kG*kA*kA*dA*dT*dT*dG*dT*d[5mC]*dT*d[5mC]*dA*kT*eG*k[5mC]*e[5mC]; antisense) [compound 1198288] was 77 % UTC

Note to self: % UTC (Yap1 mRNA) recorded for 1197216 (kA*kA*kA*dG*dT*dG*dT*dA*dT*dG*dT*d[5mC]*dA*kG*kA*kA; antisense) [compound 1197216] was 66 % UTC
